// provenance: paper PMC3874162

- assay_target: T1, Cdc13-DBD (Saccharomyces cerevisiae, UniProt P32797 497-694)
- T1 sequence: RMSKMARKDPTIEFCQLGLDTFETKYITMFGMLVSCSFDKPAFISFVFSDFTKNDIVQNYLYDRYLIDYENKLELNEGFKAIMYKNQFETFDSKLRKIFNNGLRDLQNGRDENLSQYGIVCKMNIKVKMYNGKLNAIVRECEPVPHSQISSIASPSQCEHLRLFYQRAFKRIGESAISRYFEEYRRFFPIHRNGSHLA
- experimental_protocol: filter binding
quantity_kind: Kd (nM)
Note: unit nM is implicit; provide only the numeric part.

Exam item: Reported Kd, binder GTGTGGGTGTG (ssDNA) [Tel11] : ____
Marked response: 0.21
